Data origin, for the record: patent US20250262316A1

TARGET: T1, B7-H3 on MDA-MB-468 cells (human, UniProt Q5ZPR3)
T1 construct: endogenous, on the cell surface
T1 sequence (cell surface antigen, looked up): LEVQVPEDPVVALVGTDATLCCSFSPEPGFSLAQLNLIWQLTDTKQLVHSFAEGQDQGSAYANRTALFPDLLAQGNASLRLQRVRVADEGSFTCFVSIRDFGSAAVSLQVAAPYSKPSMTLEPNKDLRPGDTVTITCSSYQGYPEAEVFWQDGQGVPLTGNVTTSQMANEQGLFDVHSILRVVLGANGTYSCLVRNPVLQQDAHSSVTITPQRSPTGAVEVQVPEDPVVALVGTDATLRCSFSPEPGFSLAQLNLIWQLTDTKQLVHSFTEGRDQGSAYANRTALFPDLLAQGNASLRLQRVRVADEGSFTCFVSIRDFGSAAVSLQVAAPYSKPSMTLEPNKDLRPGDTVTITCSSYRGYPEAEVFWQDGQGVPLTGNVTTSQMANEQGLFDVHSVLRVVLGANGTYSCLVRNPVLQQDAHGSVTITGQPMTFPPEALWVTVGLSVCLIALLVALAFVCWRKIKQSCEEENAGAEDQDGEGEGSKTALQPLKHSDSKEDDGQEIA
METHOD: flow cytometry on MDA-MB-468 cells; blank V2-R 0.9%
MEASURED QUANTITY: % of cells in gate V1-R at 0.411 nM

Bench note: what % of cells in gate V1-R at 0.411 nM did Antibody V3 (antibody, human IgG1, kappa, V domains shown, Humanized from chimeric antibody M1; also called humanized antibody V3) VH: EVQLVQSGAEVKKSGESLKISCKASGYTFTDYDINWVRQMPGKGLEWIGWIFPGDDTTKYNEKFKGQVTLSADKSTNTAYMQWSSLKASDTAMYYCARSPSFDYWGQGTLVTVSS VL: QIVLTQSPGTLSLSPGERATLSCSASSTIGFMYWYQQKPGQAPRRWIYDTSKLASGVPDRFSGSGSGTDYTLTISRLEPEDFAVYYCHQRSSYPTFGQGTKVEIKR show?
36.8%

Next binder: Antibody V1 (antibody, human IgG1, kappa, V domains shown, Humanized from chimeric antibody M1; also called humanized antibody V1) VH: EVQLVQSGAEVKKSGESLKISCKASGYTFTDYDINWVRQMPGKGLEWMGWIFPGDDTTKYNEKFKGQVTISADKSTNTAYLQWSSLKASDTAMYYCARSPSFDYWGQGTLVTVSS VL: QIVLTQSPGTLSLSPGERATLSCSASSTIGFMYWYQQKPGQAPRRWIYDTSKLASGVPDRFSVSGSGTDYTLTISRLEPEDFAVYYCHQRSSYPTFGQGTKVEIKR
1.4%
